So I've got a bunch of compounds here, and I need their z-score values.
Test: DUSP6 inhibitors restoring Erk phosphorylation by chemical complementation, primary imaging in DUSP6-transfected HeLa (AID 609)
Conditions: HeLa MKP-3 transfected, phospho-Erk imaging KS statistic; measured here: nuclear pErk red intensity z-score; at 10 µM; stronger effect = higher value; cells stimulated with TPA for 15 min
Form: value (number only, do not type unit).

What measured z-score goes with Cc1cc(C(=O)O)c(CSc2ncn[nH]2)o1 ?
1.7

Quick one: z-score of COc1ccc(N2C(=O)C3C(C2=O)C2C=CC3C23CC3)c(OC)c1 (stereo not drawn) ?
1.05

Name the reported z-score value associated with the compound COc1ccccc1C(=O)NCC(=O)n1nc(C)cc1C
-0.112

Please look up its z-score: CCOc1ccc(S(=O)(=O)NC(C)(C)C)cc1-c1nc2c(C(C)(C)C)nn(C)c2c(=O)[nH]1
-0.971

Which z-score value is on record for C=CCc1cccc(CNc2nc3ccccc3n2C(C)C)c1O ?
1.18

Can you look up the measured z-score of Cc1nc(NCCCO)c(C#N)c2c1COC(C)(C)C2 for me?
-0.462

// z-score lookup, key: Cc1sc(-n2c(C)cc(/C=N/n3cnnc3)c2C)c(C#N)c1C
0.842

Which measured z-score value corresponds to O=c1cc(-c2ccco2)nc(-c2cccs2)o1 ?
-0.386

# input compound: CCc1nc2n[nH]c(N)c2c2c1CSC(C)(C)C2 ; wanted: its z-score
2.27

Give the measured z-score of CCC(NC(=O)Nc1ncccc1C)(C(F)(F)F)C(F)(F)F .
-1.61

# z-score lookup, item C=C(C)Cn1c(-c2ccc(OC)cc2)nc2ccccc21
0.627

Any idea what z-score was measured for COc1ccccc1C1/C(=C(/O)c2ccc(OC(C)C)cc2)C(=O)C(=O)N1c1cc(C)on1 (stereo not drawn) ?
-0.964

Consider the compound shown here: O=C(NCCCn1ccnc1)c1cccnc1 What is its recorded z-score?
-0.483

----------
Assay: inhibitors of E-selectin induction by TNFa, primary screen, imaging, HUVEC, immunofluorescence, MLSMR starter and 10KST1 sets (AID 487);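 further: signal is fraction of cell area covered by stained E-selectin grains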
Conditions: HUVEC TNFalpha-induced E-selectin immunofluorescence imaging, at 2 µM; stronger effect = higher value
Decision: inhibition >= -50% yields YES, all other cases yield NO.

Exam item: decide whether the reported inhibition for CCCc1cc(=O)oc2c(C)c3occ(C)c3cc12 is at least -50%.
YES

Decide: is the reported value of inhibition for Cc1ccc(-n2[nH]c(C)c(C=Nc3cc(C)ccn3)c2=O)cc1 equal to or greater than -50%?
YES

Hi team, for COc1ccc2nc(SCC(=O)O)nc(C)c2c1 , is the recorded inhibition at or above -50%?
NO

// inclusive: inhibition at least -50%? input: C=CCc1c(C)nc(SC)nc1Nc1ccc(C(=O)O)cc1
YES

# bool: inhibition of Oc1ccc2ccccc2c1C=NC12CN3CCN(CN(C3)C1)C2 >= -50%
YES

API: above_or_equal(metric=inhibition, cutoff=-50%) for item COc1cc(C2C(C(C)=O)=C(O)C(=O)N2c2ccc(Br)cn2)ccc1O (stereo not given)
NO

Confirm if inhibition reported for the compound CCOc1ccc(-c2nc(C#N)c(N3CCN(CC)CC3)o2)cc1 is -50% or above.
YES

Form field: inhibition at least -50%? Entry: CCCCN(C(=O)CCC(=O)O)C1CC(=O)N(c2ccc(OCCC)cc2)C1=O (stereo not given)
YES

Check the entry Cc1nnc(N2C(=O)C(O)=C(C(=O)c3ccco3)C2c2ccc(F)cc2)s1 (stereo not given) : does inhibition equal or exceed -50%?
YES

Hi, just wondering whether O=c1c[n+]([O-])c2ccccc2n1OCc1c(F)cccc1F shows inhibition of -50% or higher.
NO

Threshold query (inhibition >= -50%) on Cc1nn(CCO)c2c1C(=O)CCC2
YES

Identify whether the reported inhibition of the following compound is -50% or greater: N#Cc1nc(-c2cccs2)oc1NCc1ccccc1Cl
NO

Could you please find out whether CCN(CCCNC(=O)CC1Oc2ccc(C)cc2NC1=O)Cc1ccccc1 (stereo not given) has inhibition that meets -50% or exceeds it?
YES

Does inhibition meet or surpass -50% for CCCCCOC(=O)Cc1c(C)nc(-c2ccccc2)[nH]c1=O ?
NO

Reported inhibition reaches at least -50% for COC(=O)c1ccc(C2/C(=C(\O)c3cccc(OC)c3)C(=O)C(=O)N2CCCN2CCOCC2)cc1 (stereo not given) ?
NO

Evaluate COc1ccc(C(O)C(CN2CCOCC2)c2ccccc2)cc1 (stereo not given) : inhibition at minimum -50%?
YES

Decide: inhibition of COc1ccc(C(=O)c2ccc(N3CCOCC3)cc2)c(OC)c1 >= -50%?
YES

Dear colleague, could you confirm whether Clc1ccc(C2Nc3ccccc3-n3cccc32)cc1 (stereo not given) has inhibition at or above -50%?
YES

Decide: inhibition of Cc1ccc(-c2nnc(N3CCN(C(=O)CN4C(=O)c5ccccc5C4=O)CC3)c3ccccc23)cc1 >= -50%?
NO

Origin of measurements: PubChem BioAssay
